Reference source for all entries: the supplement of paper PMC9233669

Test system: biotinyl-Phe-oxazolone
Test: self-aminoacylation, catalytic enhancement (BFO) (fold over background); higher = more active; k-Seq, kA / k0A0; sequences stand for … in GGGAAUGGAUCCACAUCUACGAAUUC…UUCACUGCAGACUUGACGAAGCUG
Fewer inactive variants are shown than the library holds.
In this scheme, each record receives a class according to its self-aminoacylation; the ranges are lower bin = under 3, middle bin = from 3 up to 40, upper bin = 40 and over

See these solved cases before continuing.
CCACACUUCGAGCAAUCGGUA [Fam1B.1 aminoacylation ribozyme variant]	lower bin
AUAACCCUGGUCAUCUAGUGA [Fam2.1 aminoacylation ribozyme variant]	upper bin
CUACUUCAAACAAUCGGUGUC [Fam1A.1 aminoacylation ribozyme variant]	lower bin
CCAAACUUCAACCAAUCGGUC [Fam1B.1 aminoacylation ribozyme variant]	upper bin
CUACUACUAACAAUCGGUCUG [Fam1A.1 aminoacylation ribozyme variant]	lower bin

Q. Each sequence maps to one class by self-aminoacylation. Which class for AUUUCGCUGGUCAUCGAGUGA [Fam2.1 aminoacylation ribozyme variant] ?
A. middle bin

Q. Please answer likewise for AUUAGACUGGUCAUCGAGUGA [Fam2.1 aminoacylation ribozyme variant]
A. middle bin

Q. Please answer likewise for AUUCCCCUAGGUCAUCGGGUU [Fam2.2 aminoacylation ribozyme variant]
A. middle bin

Q. Please answer likewise for AUUCACCUAGGUGAUCGGGUC [Fam2.2 aminoacylation ribozyme variant]
A. lower bin

Q. Please answer likewise for AUACUUCAAACCAUCGGUCUG [Fam1A.1 aminoacylation ribozyme variant]
A. lower bin

Q. Please answer likewise for AUUCACCAAGGUCAUCGGUUG [Fam2.2 aminoacylation ribozyme variant]
A. middle bin

Q. Please answer likewise for AUUCCCCUAGUUCAUCGGGUG [Fam2.2 aminoacylation ribozyme variant]
A. upper bin

Q. Please answer likewise for GUUACCCUGGUCGUCGAGUGA [Fam2.1 aminoacylation ribozyme variant]
A. middle bin

Q. Please answer likewise for UCACACUUCCAGCAAUCGGUC [Fam1B.1 aminoacylation ribozyme variant]
A. lower bin

Q. Please answer likewise for AUCCACCUUGGUCAUCGGGUG [Fam2.2 aminoacylation ribozyme variant]
A. upper bin

Q. Please answer likewise for CUACCUCAAACAAUCGGCCUG [Fam1A.1 aminoacylation ribozyme variant]
A. middle bin

Q. Please answer likewise for AUGACGCUGGUCAUCGAGUGA [Fam2.1 aminoacylation ribozyme variant]
A. middle bin

Q. Please answer likewise for AUGAACCUGGUCAUCGAGUGA [Fam2.1 aminoacylation ribozyme variant]
A. middle bin

====

Overview of recorded self-aminoacylation for various sequences
Test system: biotinyl-Val-oxazolone
Experiment: self-aminoacylation, catalytic enhancement (BVO) (fold over background); higher = more active; k-Seq, kA / k0A0; sequences stand for … in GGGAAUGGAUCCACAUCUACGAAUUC…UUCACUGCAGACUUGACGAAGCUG
Variants at the floor of the assay were thinned out.
Format: numeric value only, no unit, no commentary.

Look over these answered cases.
UUUGCCCUGGUCAUCGAGUGA [Fam2.1 aminoacylation ribozyme variant]	18.1
AUUCACCUAGGACAUUGGGUG [Fam2.2 aminoacylation ribozyme variant]	2.28
CUACUUCUAACAAUCGGUCCG [Fam1A.1 aminoacylation ribozyme variant]	0.621
UUUCACCUAGGUCUUCGGGUG [Fam2.2 aminoacylation ribozyme variant]	4.51

Okay, now this sequence:
Q. Could you share what self-aminoacylation was measured for CUACUUCCACCAAUCGGUCUG [Fam1A.1 aminoacylation ribozyme variant] , tested on biotinyl-Val-oxazolone?
A. 0.877
